Values were extracted from the supplement of paper PMC10981050.

Items are presented alongside their recorded cell viability.
system: OCI-AML2; experiment: cell viability relative to vehicle control; higher = less cytotoxic; conditions: 10 µM; SRSF2 genotype: P95H/wt;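 note: after 48 h exposure read by CellTiter-Glo luminescence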
Where a name gives a salt, the structure may show the parent alone.
Just the number in %, nothing appended.

Example results:
INSERT INTO assay_data (molecule, assay_target, readout_unit, assay_value) VALUES
  ('COc1ccc2[nH]c([S@@+]([O-])Cc3ncc(C)c(OC)c3C)nc2c1 [NEXIUM (esomeprazole magnesium)]', 'OCI-AML2', '%', 90.5),
  ('CCn1cc(C(=O)O)c(=O)c2cc(F)c(N3CCN(C)CC3)cc21 [Pefloxacin Mesylate Dihydrate]', 'OCI-AML2', '%', 90.9);

Exam item: Output measured cell viability for this item: CC#Cc1cncc(-c2ccc3c(c2)C2(N=C(C)C(N)=N2)C2(CCC(OC)CC2)C3)c1 (stereo not drawn)
Marked response: 88.8
